Measured values drawn from patent US12599672B2 for this set.

For each entry below, report its DC50 value.
assay_system: KRAS (Homo sapiens, UniProt P01116)
Construct: endogenous in cells; host or cells: KE39 (KRAS amplified) cells
Sequence (P01116 1-188 isoform P01116-2): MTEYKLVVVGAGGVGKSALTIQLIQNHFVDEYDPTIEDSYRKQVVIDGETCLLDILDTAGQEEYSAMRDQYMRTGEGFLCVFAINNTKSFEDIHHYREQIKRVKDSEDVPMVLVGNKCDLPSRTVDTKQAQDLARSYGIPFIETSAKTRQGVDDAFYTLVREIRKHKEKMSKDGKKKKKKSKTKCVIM
protocol_text: KRASamp MSD assay
Type: cell-based
particulars: KE39 (KRAS amplified) cells, treated with test compounds for 24 hr, MSD readout of KRAS degradation

A selection of reference data follows.
compound	reported_measurement
CCc1c(F)ccc2cc(O)cc(-c3ncc4c(N5CCC[C@@](C)(O)C5)nc(OC[C@]56CCCN5[C@@H](COC(=O)N5CCC(CN7CCC(c8ccc9c(c8)n(C)c(=O)n9C8CCC(=O)NC8=O)CC7)CC5)CC6)nc4c3F)c12 (some centres unmarked)	< 1 nM
CCc1c(F)ccc2cc(O)cc(-c3ncc4c(N5CCCCC5)nc(OC[C@@]56CCCN5[C@H](COC(=O)N5CCC7(CC5)CC(N5CCC(c8ccc9c(c8)n(C)c(=O)n9C8CCC(=O)NC8=O)CC5)C7)CC6)nc4c3F)c12 (some centres unmarked)	< 1 nM

Lab note: each compound below needs its DC50 filled in.
1. C#Cc1c(F)ccc2cc(O)cc(-c3ncc4c(N5CCC[C@@](C)(O)C5)nc(OC[C@@]56CCCN5[C@H](COC(=O)N5CCC(CC#Cc7ccc8c(c7)n(C)c(=O)n8C7CCC(=O)NC7=O)CC5)CC6)nc4c3F)c12 (some centres unmarked)
2. C#Cc1c(F)ccc2cc(O)cc(-c3ncc4c(N5CCC[C@@](C)(O)C5)nc(OC[C@@]56CCCN5[C@H](COC(=O)N5CCC7(CCC7N7CCC(c8ccc9c(c8)n(C)c(=O)n9C8CCC(=O)NC8=O)CC7)CC5)CC6)nc4c3F)c12 (some centres unmarked)
3. CCc1c(F)ccc2cc(O)cc(-c3ncc4c(N5CCC[C@@](C)(O)C5)nc(OC[C@@]56CCCN5[C@H](COC(=O)N5CCCC5CN5CCC(c7ccc8c(c7)n(C)c(=O)n8C7CCC(=O)NC7=O)CC5)CC6)nc4c3F)c12 (some centres unmarked)

1. 1 to 10 nM
2. ≥ 10 nM
3. 1 to 10 nM
